ASSAY DETAILS: Stability assessed as compound peak area at pH 6 after 24 hrs by HPLC-PDA method
Format: physicochemical
RUN PARAMETERS: read-out: Stability
RESULT TYPE: remaining at 24 h (%)

# COMPOUND, RESULT TYPE, OBSERVED VALUE
records = [
    ("Oc1cccc(CNc2ncnc3c2ncn3C2CCCO2)c1 (configuration not stated)", "remaining at 24 h", 99.4),
    ("Oc1cccc(CNc2ncnc3c2ncn3C2CCCCO2)c1 (configuration not stated)", "remaining at 24 h", 99.3),
]

* * *

ASSAY DETAILS: Stability assessed as compound peak area at pH 3 after 1 hr by HPLC-PDA method
Format: physicochemical
RUN PARAMETERS: read-out: Stability
RESULT TYPE: remaining at 1 h (%)

[P] Oc1cccc(CNc2ncnc3c2ncn3C2CCCO2)c1 (configuration not stated)
[Q] Oc1cccc(CNc2ncnc3c2ncn3C2CCCCO2)c1 (configuration not stated)
Query: // select label with min value of measured remaining at 1 h from [ P , Q ] Kindly give the label for the entry you pick.
Reply: P

* * *

Recorded pIC50, one value per entry.
Test system: BJ
ASSAY DETAILS: Cytotoxicity against human BJ cells after 72 hrs by MTT assay
Format: ADME, cell-based
pIC50: −log10 of the molar value.

// known answers, use as guide
# MOLECULE, pIC50
data = [
    ("Oc1cccc(CNc2ncnc3c2ncn3C2CCCCO2)c1O (configuration not stated)", 4.20),
    ("Oc1cc(O)cc(CNc2ncnc3c2ncn3C2CCCCO2)c1 (configuration not stated)", "< 4.00"),
    ("COc1ccc(OC)c(CNc2ncnc3c2ncn3C2CCCCO2)c1 (configuration not stated)", "< 4.00"),
    ("COc1ccc(CNc2ncnc3c2ncn3C2CCCCO2)cc1 (configuration not stated)", "< 4.00"),
    ("COc1ccc(CNc2ncnc3c2ncn3C2CCCO2)cc1OC (configuration not stated)", "< 4.00"),
]

Query: I have this molecule here, COc1cc(CNc2ncnc3c2ncn3C2CCCO2)cc(OC)c1OC (configuration not stated) , and I need its recorded pIC50.
Reply: < 4.00

Query: Here is the next molecule: COc1ccc(OC)c(CNc2ncnc3c2ncn3C2CCCO2)c1 (configuration not stated)
Reply: < 4.30

* * *

Entries annotated with measured pIC50
Test system: BJ
ASSAY DETAILS: Cytotoxicity against human BJ cells after 72 hrs by MTT assay
Type: ADME, cell-based
pIC50: −log10 of the molar value.

Some entries whose results are on file:
# COMPOUND, pIC50
data = [
    ("Oc1ccc(CNc2ncnc3c2ncn3C2CCCO2)cc1 (stereo unspecified)", "< 4.00"),
    ("COc1cc(OC)c(CNc2ncnc3c2ncn3C2CCCCO2)c(OC)c1 (stereo unspecified)", "< 4.30"),
    ("Oc1ccc(CNc2ncnc3c2ncn3C2CCCCO2)cc1 (stereo unspecified)", "< 4.00"),
    ("COc1cc(CNc2ncnc3c2ncn3C2CCCCO2)cc(OC)c1 (stereo unspecified)", "< 4.00"),
    ("COc1ccc(CNc2ncnc3c2ncn3C2CCCCO2)cc1OC (stereo unspecified)", "< 4.00"),
]

// next entry
Query: Please tell me: pIC50 of c1ccc(CNc2ncnc3c2ncn3C2CCCO2)cc1 (stereo unspecified) , system BJ?
Reply: < 4.00

* * *

ASSAY DETAILS: Stability assessed as compound peak area at pH 3 after 24 hrs by HPLC-PDA method
Type: physicochemical
RUN PARAMETERS: read-out: Stability
RESULT TYPE: remaining at 24 h (%)

[A] Oc1cccc(CNc2ncnc3c2ncn3C2CCCCO2)c1 (configuration not stated)
[B] Oc1cccc(CNc2ncnc3c2ncn3C2CCCO2)c1 (configuration not stated)
Query: Which has the higher remaining at 24 h, A or B ? State the label of the item chosen.
Reply: A
(A: 39.6%, B: 0.3%)

* * *

Collected Activity values appear next to each entry.
Test system: Nicotiana tabacum
ASSAY DETAILS: Cytokinin activity in tobacco callus assessed as stimulation of callus growth at 10 uM relative to 6-benzylaminopurine
Format: functional
# output: bare number, implied unit %

In the examples that follow, each entry is paired with its recorded Activity.
# COMPOUND, OBSERVED VALUE
data = [
    ("COc1ccc(OC)c(CNc2ncnc3c2ncn3C2CCCO2)c1 (configuration not stated)", 61),
    ("COc1ccc(OC)c(CNc2ncnc3c2ncn3C2CCCCO2)c1 (configuration not stated)", 42),
    ("Oc1ccccc1CNc1ncnc2c1ncn2C1CCCCO1 (configuration not stated)", 37),
    ("Oc1cc(O)cc(CNc2ncnc3c2ncn3C2CCCCO2)c1 (configuration not stated)", 36),
]

Query: # lookup: Activity of Oc1ccc(CNc2ncnc3c2ncn3C2CCCO2)cc1 (configuration not stated)
Reply: 19

Query: Field entry: Oc1ccc(CNc2ncnc3c2ncn3C2CCCCO2)cc1 (configuration not stated)
Reply: 20

Query: Do the same for COc1ccccc1CNc1ncnc2c1ncn2C1CCCO1 (configuration not stated) please
Reply: 91

* * *

Test system: Amaranthus
ASSAY DETAILS: Cytokinin activity in cotyledons assessed as dark induction of betacyanin synthesis at 100 uM relative to 6-benzylaminopurine
Format: functional
RESULT TYPE: Activity (%)
# unit: % | format: bare number

Query: Give the measured Activity of Oc1cccc(CNc2ncnc3c2ncn3C2CCCCO2)c1O (centres undefined) .
Reply: 8

Query: Do the same for COc1ccc(OC)c(CNc2ncnc3c2ncn3C2CCCCO2)c1 (centres undefined) please
Reply: 28

Query: Follow-up item: COc1cc(CNc2ncnc3c2ncn3C2CCCO2)cc(OC)c1OC (centres undefined)
Reply: 17

Query: Param item: Oc1ccccc1CNc1ncnc2c1ncn2C1CCCO1 (centres undefined)
Reply: 41

* * *

ASSAY DETAILS: Stability assessed as compound peak area at pH 7 after 24 hrs by HPLC-PDA method
Type: physicochemical
RUN PARAMETERS: read-out: Stability
RESULT TYPE: remaining at 24 h (%)

# COMPOUND, remaining at 24 h [%]
data = [
    ("Oc1cccc(CNc2ncnc3c2ncn3C2CCCO2)c1 (configuration not stated)", 99.7),
    ("Oc1cccc(CNc2ncnc3c2ncn3C2CCCCO2)c1 (configuration not stated)", 99.8),
]

* * *

ASSAY DETAILS: Stability assessed as compound peak area at pH 7 after 1 hr by HPLC-PDA method
Format: physicochemical
RUN PARAMETERS: read-out: Stability
RESULT TYPE: remaining at 1 h (%)

# COMPOUND, remaining at 1 h, %
data = [
    ("Oc1cccc(CNc2ncnc3c2ncn3C2CCCO2)c1 (configuration not stated)", 99.7),
    ("Oc1cccc(CNc2ncnc3c2ncn3C2CCCCO2)c1 (configuration not stated)", 99.9),
]

* * *

ASSAY DETAILS: Stability assessed as compound peak area at pH 6 after 1 hr by HPLC-PDA method
Assay type: physicochemical
RUN PARAMETERS: read-out: Stability
RESULT TYPE: remaining at 1 h (%)

# COMPOUND, remaining at 1 h / %
records = [
    ("Oc1cccc(CNc2ncnc3c2ncn3C2CCCO2)c1 (configuration not stated)", 99.6),
    ("Oc1cccc(CNc2ncnc3c2ncn3C2CCCCO2)c1 (configuration not stated)", 99.8),
]

* * *

Test system: BJ
ASSAY DETAILS: Cytotoxicity against human BJ cells after 72 hrs by MTT assay
Assay type: ADME, cell-based
# IC50 listing for each entry below

// below: answered molecules
# MOLECULE, OBSERVED VALUE
records = [
    ("Oc1cccc(CNc2ncnc3c2ncn3C2CCCCO2)c1 (stereo not given)", "> 100 µM"),
    ("COc1cc(OC)c(OC)cc1CNc1ncnc2c1ncn2C1CCCCO1 (stereo not given)", "> 100 µM"),
    ("COc1ccc(CNc2ncnc3c2ncn3C2CCCCO2)c(OC)c1OC (stereo not given)", "> 37.5 µM"),
]

Query: // lookup IC50 for COc1cc(CNc2ncnc3c2ncn3C2CCCCO2)ccc1O (stereo not given)
Reply: > 100 µM

Query: Try this molecule next: COc1ccc(CNc2ncnc3c2ncn3C2CCCO2)c(OC)c1OC (stereo not given)
Reply: > 100 µM
